# TARGET_OF_ASSAY: USP7 (Homo sapiens)
# Sequence (Q93009 whole entry): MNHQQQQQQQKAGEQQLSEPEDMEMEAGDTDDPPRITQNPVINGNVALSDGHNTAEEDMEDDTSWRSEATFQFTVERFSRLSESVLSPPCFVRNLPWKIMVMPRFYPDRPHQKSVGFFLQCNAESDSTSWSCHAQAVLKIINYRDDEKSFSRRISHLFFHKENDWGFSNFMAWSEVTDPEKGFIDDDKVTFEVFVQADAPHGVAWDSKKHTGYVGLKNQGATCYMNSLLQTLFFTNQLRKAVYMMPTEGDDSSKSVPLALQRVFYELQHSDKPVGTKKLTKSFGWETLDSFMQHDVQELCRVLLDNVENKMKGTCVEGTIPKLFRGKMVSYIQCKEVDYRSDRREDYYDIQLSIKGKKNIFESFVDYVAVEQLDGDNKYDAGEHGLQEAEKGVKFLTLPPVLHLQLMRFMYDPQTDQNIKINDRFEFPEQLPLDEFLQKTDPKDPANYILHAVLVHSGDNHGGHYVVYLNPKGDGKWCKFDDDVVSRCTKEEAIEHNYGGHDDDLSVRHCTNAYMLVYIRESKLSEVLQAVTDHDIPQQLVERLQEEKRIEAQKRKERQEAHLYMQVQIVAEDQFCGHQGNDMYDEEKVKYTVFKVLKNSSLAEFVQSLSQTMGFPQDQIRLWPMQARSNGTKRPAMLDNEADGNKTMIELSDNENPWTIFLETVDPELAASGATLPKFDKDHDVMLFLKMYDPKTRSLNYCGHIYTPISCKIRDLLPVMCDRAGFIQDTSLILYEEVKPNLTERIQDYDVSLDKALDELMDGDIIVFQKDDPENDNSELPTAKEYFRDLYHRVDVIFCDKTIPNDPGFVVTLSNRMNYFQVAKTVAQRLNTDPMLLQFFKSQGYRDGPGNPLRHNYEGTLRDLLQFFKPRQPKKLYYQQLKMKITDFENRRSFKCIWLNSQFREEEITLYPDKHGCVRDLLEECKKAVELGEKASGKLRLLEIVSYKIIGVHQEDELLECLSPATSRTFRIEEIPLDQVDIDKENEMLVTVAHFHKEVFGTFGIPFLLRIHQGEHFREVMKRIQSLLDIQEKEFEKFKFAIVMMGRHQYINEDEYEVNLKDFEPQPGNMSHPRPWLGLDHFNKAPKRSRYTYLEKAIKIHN
pIC50: −log10 of the molar value.
MEASURED_QUANTITY: pIC50

CNC(=O)c1cc2c(-c3cc(Cl)cc4c3OC(C(=O)N3CCNCC3)C4)ccnc2[nH]1 (stereo not drawn) : 4.52 to 5.00
CN1CC(=O)N(Cc2cc3nccc(-c4cc(Cl)cc5c4O[C@@H](C(=O)N4CCNCC4)C5)c3s2)C1=O : > 6.00
CC(O)c1ccc2c(-c3cc(Cl)cc4c3O[C@@H](c3onc5c3CNCC5)C4)ccnc2c1 (stereo partly drawn) : > 6.00
CC[C@@H](O)c1cc2nccc(-c3cc(Cl)cc4c3O[C@@H](c3onc5c3CNCC5)C4)c2s1 : > 6.00
Clc1cc2c(c(-c3ncnc4ccoc34)c1)O[C@@H](c1onc3c1CNCC3)C2 : > 6.00
N#Cc1ccc2nccc(-c3cc(Cl)cc4c3OC(C(=O)N3CCNCC3)C4)c2c1 (stereo not drawn) : 4.52 to 5.00
O=C([C@H]1Cc2cc(Cl)cc(-c3ccnc4cc(Cn5c(=O)cc[nH]c5=O)sc34)c2O1)N1CCNCC1 : > 6.00
COc1cccc2c(-c3cc(Cl)cc4c3OC(C(=O)N3CCNCC3)C4)ccnc12 (stereo not drawn) : 4.52 to 5.00
CCC(O)c1cc2ncnc(-c3cc(Cl)cc4c3O[C@@H](c3onc5c3CNCC5)C4)c2s1 (stereo partly drawn) [drawing 1579] : > 6.00
